Measured pIC50, listed per entry.
- TARGET_OF_ASSAY: cytochrome P450 2C9-isoenzyme (Homo sapiens (Human), UniProt P11712)
- Sequence (P11712 whole entry): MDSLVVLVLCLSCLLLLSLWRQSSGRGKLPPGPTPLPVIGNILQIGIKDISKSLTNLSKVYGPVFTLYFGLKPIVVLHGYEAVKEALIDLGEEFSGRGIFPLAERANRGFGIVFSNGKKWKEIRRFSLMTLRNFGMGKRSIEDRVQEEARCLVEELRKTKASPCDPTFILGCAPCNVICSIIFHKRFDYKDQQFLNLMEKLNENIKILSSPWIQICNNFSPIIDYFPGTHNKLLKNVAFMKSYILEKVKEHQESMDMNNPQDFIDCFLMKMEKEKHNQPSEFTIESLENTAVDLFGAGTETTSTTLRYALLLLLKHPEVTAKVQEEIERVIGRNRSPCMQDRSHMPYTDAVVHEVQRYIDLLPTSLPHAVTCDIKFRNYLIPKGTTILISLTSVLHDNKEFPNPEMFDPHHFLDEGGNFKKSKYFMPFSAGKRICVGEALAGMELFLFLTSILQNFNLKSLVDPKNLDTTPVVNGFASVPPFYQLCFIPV
- PROTOCOL_DESCRIPTION: Inhibition of CYP-2C9 (diclofenac hydroxylation, human liver microsomes)
- Type: in vitro ADME
- CONDITION: diclofenac 10 μM, 37° C.
pIC50: −log10 of the molar value.

{"MOLECULE": "CNC(=O)c1cc(C)c(-c2ccc(F)c3c2CC[C@H]3Nc2ccc([C@H]3C[C@@H]3C(=O)O)nc2)c(C)c1 [Example 27]", "QUALIFIER_OPERATOR": "<", "pIC50": 4.30}
{"MOLECULE": "Cc1cc(OCC(=O)O)cc(C)c1-c1ccc(F)c2c1CC[C@H]2Nc1ccc([C@H]2C[C@@H]2C(=O)O)nc1 [Example 16]", "QUALIFIER_OPERATOR": "<", "pIC50": 4.30}
{"MOLECULE": "Cc1cc(OCC(C)(C)C#N)cc(C)c1-c1ccc(F)c2c1CC[C@H]2Nc1ccc([C@H]2C[C@@H]2C(=O)O)nc1 [Example 17]", "QUALIFIER_OPERATOR": "=", "pIC50": 4.44}
{"MOLECULE": "Cc1cc(C(=O)O)cc(C)c1-c1ccc(F)c2c1CC[C@H]2Nc1ccc([C@H]2C[C@@H]2C(=O)O)nc1 [Example 23]", "QUALIFIER_OPERATOR": "<", "pIC50": 4.30}
{"MOLECULE": "Cc1cc(OCC2CCOCC2)cc(C)c1-c1ccc(F)c2c1CC[C@H]2Nc1ccc([C@H]2C[C@@H]2C(=O)O)nc1 [Example 26]", "QUALIFIER_OPERATOR": "=", "pIC50": 4.80}
{"MOLECULE": "O=C(O)[C@H]1C[C@@H]1c1ccc(N[C@@H]2CCc3c(-c4c(Cl)cccc4Cl)ccc(F)c32)cn1 [Example 24]", "QUALIFIER_OPERATOR": "=", "pIC50": 4.66}
{"MOLECULE": "Cc1cc(C(=O)N(C)C)cc(C)c1-c1ccc(F)c2c1CC[C@H]2Nc1ccc([C@H]2C[C@@H]2C(=O)O)nc1 [Example 39]", "QUALIFIER_OPERATOR": "<", "pIC50": 4.30}

###

- TARGET_OF_ASSAY: cytochrome P450 2C9-isoenzyme (Homo sapiens (Human), UniProt P11712)
- PROTOCOL_DESCRIPTION: Inhibition of CYP-2C9 (diclofenac hydroxylation, human liver microsomes)
- Assay type: in vitro ADME
- CONDITION: diclofenac 10 μM, 37° C.
pIC50: −log10 of the molar value.

{"MOLECULE": "Cc1cc(OCC(C)(C)O)cc(C)c1-c1ccc(F)c2c1CC[C@H]2Nc1ccc([C@H]2C[C@@H]2C(=O)O)nc1", "pIC50": "< 4.30"}
{"MOLECULE": "Cc1cc(O[C@@H]2CCOC2)cc(C)c1-c1ccc(F)c2c1CC[C@H]2Nc1ccc([C@H]2C[C@@H]2C(=O)O)nc1", "pIC50": "< 4.30"}
{"MOLECULE": "Cc1cc(-c2nnn(CC(C)(C)O)n2)cc(C)c1-c1ccc(F)c2c1CC[C@H]2Nc1ccc([C@H]2C[C@@H]2C(=O)O)nc1", "pIC50": "< 4.30"}
{"MOLECULE": "Cc1cc(CO)cc(C)c1-c1ccc(F)c2c1CC[C@H]2Nc1ccc([C@H]2C[C@@H]2C(=O)O)nc1", "pIC50": "< 4.30"}
{"MOLECULE": "Cc1cc(C(N)=O)cc(C)c1-c1ccc(F)c2c1CC[C@H]2Nc1ccc([C@H]2C[C@@H]2C(=O)O)nc1", "pIC50": "< 4.30"}
{"MOLECULE": "Cc1cc(O[C@H]2CCOC2)cc(C)c1-c1ccc(F)c2c1CC[C@H]2Nc1ccc([C@H]2C[C@@H]2C(=O)O)nc1 (mixture of isomers)", "pIC50": "< 4.30"}
{"MOLECULE": "O=C(O)[C@H]1C[C@@H]1c1ccc(N[C@@H]2CCc3c(-c4ccccc4C(F)(F)F)ccc(F)c32)cn1", "pIC50": 4.51}
{"MOLECULE": "Cc1cc(OC2CCOCC2)cc(C)c1-c1ccc(F)c2c1CC[C@H]2Nc1ccc([C@H]2C[C@@H]2C(=O)O)nc1", "pIC50": "< 4.30"}
{"MOLECULE": "Cc1cc(OCCC(C)(C)O)cc(C)c1-c1ccc(F)c2c1CC[C@H]2Oc1ccc([C@H]2C[C@@H]2C(=O)O)cc1 [Example 17 in WO 2013/178575, reference compound]", "pIC50": 4.85}
{"MOLECULE": "Cc1cc(OCC2(O)CCOCC2)cc(C)c1-c1ccc(F)c2c1CC[C@H]2Nc1ccc([C@H]2C[C@@H]2C(=O)O)nc1", "pIC50": "< 4.30"}
{"MOLECULE": "Cc1cc(-c2ccnn2C)cc(C)c1-c1ccc(F)c2c1CC[C@H]2Nc1ccc([C@H]2C[C@@H]2C(=O)O)nc1", "pIC50": 4.59}
{"MOLECULE": "Cc1cc(OCCCS(C)(=O)=O)cc(C)c1-c1ccc(F)c2c1CC[C@H]2Oc1ccc([C@H]2C[C@@H]2C(=O)O)nc1 [Example 11 in WO 2013/178575, reference compound]", "pIC50": 4.77}
{"MOLECULE": "Cc1cc(OCC2CCOC2)cc(C)c1-c1ccc(F)c2c1CC[C@H]2Nc1ccc([C@H]2C[C@@H]2C(=O)O)nc1 (stereo partly shown)", "pIC50": "< 4.30"}

###

- TARGET_OF_ASSAY: UniProtKB P10632
- Sequence (P10632 whole entry): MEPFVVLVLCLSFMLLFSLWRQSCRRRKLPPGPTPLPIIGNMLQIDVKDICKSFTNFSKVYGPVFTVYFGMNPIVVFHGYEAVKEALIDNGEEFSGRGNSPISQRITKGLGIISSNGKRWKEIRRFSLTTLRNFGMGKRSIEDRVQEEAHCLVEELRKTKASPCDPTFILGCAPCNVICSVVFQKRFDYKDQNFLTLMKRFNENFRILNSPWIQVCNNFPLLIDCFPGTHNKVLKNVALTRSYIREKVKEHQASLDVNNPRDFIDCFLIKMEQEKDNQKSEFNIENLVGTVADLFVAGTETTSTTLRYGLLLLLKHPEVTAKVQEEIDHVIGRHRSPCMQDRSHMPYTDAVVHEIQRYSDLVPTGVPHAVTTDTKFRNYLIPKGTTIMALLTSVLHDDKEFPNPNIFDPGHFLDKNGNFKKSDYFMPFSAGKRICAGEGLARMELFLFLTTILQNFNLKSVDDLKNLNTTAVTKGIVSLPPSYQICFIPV
- PROTOCOL_DESCRIPTION: Inhibition of CYP-2C8 (amodiaquine deethylation, human liver microsomes)
- Assay type: in vitro ADME
- CONDITION: amodiaquine 1 μM, 37° C.
pIC50: −log10 of the molar value.
Each item that follows carries a reported pIC50.
PROPERTY_MEASURED: pIC50

{"SMILES_CODE": "Cc1cc(C(N)=O)cc(C)c1-c1ccc(F)c2c1CC[C@H]2Nc1ccc([C@H]2C[C@@H]2C(=O)O)nc1", "TARGET_OF_ASSAY": "UniProtKB P10632", "PROPERTY_MEASURED": "pIC50", "QUALIFIER_OPERATOR": "<", "MEASURED_NUMBER": 4.30}
{"SMILES_CODE": "Cc1cc(OCC(C)(C)O)cc(C)c1-c1ccc(F)c2c1CC[C@H]2Nc1ccc([C@H]2C[C@@H]2C(=O)O)nc1", "TARGET_OF_ASSAY": "UniProtKB P10632", "PROPERTY_MEASURED": "pIC50", "QUALIFIER_OPERATOR": "=", "MEASURED_NUMBER": 4.35}
{"SMILES_CODE": "Cc1cc(O[C@@H]2CCOC2)cc(C)c1-c1ccc(F)c2c1CC[C@H]2Nc1ccc([C@H]2C[C@@H]2C(=O)O)nc1", "TARGET_OF_ASSAY": "UniProtKB P10632", "PROPERTY_MEASURED": "pIC50", "QUALIFIER_OPERATOR": "=", "MEASURED_NUMBER": 4.52}
{"SMILES_CODE": "O=C(O)[C@H]1C[C@@H]1c1ccc(N[C@@H]2CCc3c(-c4c(Cl)cccc4Cl)ccc(F)c32)cn1", "TARGET_OF_ASSAY": "UniProtKB P10632", "PROPERTY_MEASURED": "pIC50", "QUALIFIER_OPERATOR": "=", "MEASURED_NUMBER": 4.96}
{"SMILES_CODE": "Cc1cc(-c2nnn(C)n2)cc(C)c1-c1ccc(F)c2c1CC[C@H]2Nc1ccc([C@H]2C[C@@H]2C(=O)O)nc1", "TARGET_OF_ASSAY": "UniProtKB P10632", "PROPERTY_MEASURED": "pIC50", "QUALIFIER_OPERATOR": "=", "MEASURED_NUMBER": 4.70}
{"SMILES_CODE": "Cc1cc(OCCC(C)(C)O)cc(C)c1-c1ccc(F)c2c1CC[C@H]2Nc1ccc([C@H]2C[C@@H]2C(=O)O)nc1", "TARGET_OF_ASSAY": "UniProtKB P10632", "PROPERTY_MEASURED": "pIC50", "QUALIFIER_OPERATOR": "=", "MEASURED_NUMBER": 4.70}
{"SMILES_CODE": "Cc1cc(CO)cc(C)c1-c1ccc(F)c2c1CC[C@H]2Nc1ccc([C@H]2C[C@@H]2C(=O)O)nc1", "TARGET_OF_ASSAY": "UniProtKB P10632", "PROPERTY_MEASURED": "pIC50", "QUALIFIER_OPERATOR": "=", "MEASURED_NUMBER": 4.40}

Taken from patent US10125101B2.
